tested_system: MAPK8 (human) (UniProt P45983)
Sequence (P45983 whole entry, looked up): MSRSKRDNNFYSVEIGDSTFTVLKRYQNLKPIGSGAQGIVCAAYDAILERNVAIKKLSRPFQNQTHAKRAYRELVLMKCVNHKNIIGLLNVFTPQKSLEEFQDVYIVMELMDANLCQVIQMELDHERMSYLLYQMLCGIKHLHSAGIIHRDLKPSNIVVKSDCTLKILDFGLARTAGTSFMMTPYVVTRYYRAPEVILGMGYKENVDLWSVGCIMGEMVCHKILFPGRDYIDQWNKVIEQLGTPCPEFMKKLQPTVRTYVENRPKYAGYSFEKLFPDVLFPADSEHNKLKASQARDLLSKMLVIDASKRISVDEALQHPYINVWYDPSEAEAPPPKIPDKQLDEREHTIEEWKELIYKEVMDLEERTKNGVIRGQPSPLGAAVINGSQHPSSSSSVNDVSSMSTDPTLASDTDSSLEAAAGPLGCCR
experiment: radiometric filter-binding kinase assay, Kinase HotSpot
measurement_context: compound 0.5 µM; ATP 10 µM
quantity: residual activity (%)
Please respond with the number in % and leave the unit unwritten.

Use these answered entries as a reference point.
COc1ccc(OC)c2c(=S)c3ccccc3[nH]c12 :: 96.8
Cc1nc2cc3nc(-c4cccs4)cnc3cc2n1C :: 93.7
CN(C)C[C@H]1CCn2c(c(C3=C(c4cn(C)c5ccccc45)C(=O)NC3=O)c3ccccc32)C1 :: 100

Could you now look at the following compound, please?
Task: Reported residual activity for O=C(CCCc1ccc(-c2ccccc2F)cc1)Nc1ccc(O)cc1 : what is it?
Output: 103

----------
residual activity values, listed per item
tested_system: TYRO3 (human) (UniProt Q06418)
Sequence (Q06418 whole entry, looked up): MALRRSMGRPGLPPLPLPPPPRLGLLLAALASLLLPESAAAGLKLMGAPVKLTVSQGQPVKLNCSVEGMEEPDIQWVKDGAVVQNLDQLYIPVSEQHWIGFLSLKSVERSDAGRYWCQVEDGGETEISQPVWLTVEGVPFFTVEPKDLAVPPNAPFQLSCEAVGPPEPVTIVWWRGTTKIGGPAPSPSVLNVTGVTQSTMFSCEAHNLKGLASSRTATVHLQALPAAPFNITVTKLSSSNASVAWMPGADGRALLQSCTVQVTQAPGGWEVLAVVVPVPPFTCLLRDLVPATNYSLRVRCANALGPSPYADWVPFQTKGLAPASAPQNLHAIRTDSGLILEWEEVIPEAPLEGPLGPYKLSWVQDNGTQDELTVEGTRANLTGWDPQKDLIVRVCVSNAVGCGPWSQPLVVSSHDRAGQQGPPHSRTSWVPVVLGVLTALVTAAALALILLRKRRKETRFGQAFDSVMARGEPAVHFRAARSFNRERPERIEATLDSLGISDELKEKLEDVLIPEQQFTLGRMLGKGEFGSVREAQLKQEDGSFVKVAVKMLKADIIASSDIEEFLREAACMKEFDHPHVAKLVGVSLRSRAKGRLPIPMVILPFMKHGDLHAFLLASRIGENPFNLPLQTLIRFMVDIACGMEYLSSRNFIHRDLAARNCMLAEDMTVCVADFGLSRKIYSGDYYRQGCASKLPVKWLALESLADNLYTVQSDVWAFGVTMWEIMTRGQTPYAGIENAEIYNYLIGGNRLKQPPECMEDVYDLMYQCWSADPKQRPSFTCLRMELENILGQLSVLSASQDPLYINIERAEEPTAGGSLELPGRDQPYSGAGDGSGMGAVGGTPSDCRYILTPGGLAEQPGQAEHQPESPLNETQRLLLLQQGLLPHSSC
experiment: radiometric filter-binding kinase assay, Kinase HotSpot
measurement_context: compound 0.5 µM; ATP 10 µM
Report the value in % with no unit label.

Use the examples below as a reference point.
O=C1Nc2ccccc2/C1=C1\Nc2ccccc2\C1=N/O :: 79.6
O=C1NC(=O)C(c2c[nH]c3ccccc23)=C1c1c[nH]c2ccccc12 :: 101
CN(C)C[C@H]1CCn2c(c(C3=C(c4cn(C)c5ccccc45)C(=O)NC3=O)c3ccccc32)C1 :: 99.3
O=C1NC(=O)/C(=C\c2ccc3nccnc3c2)S1 :: 99.1
Cn1cnc2cc3c(Nc4cccc(Br)c4)ncnc3cc21 :: 94.5

Task: Quick one: residual activity of COc1ccc(CNC(=O)Nc2ncc([N+](=O)[O-])s2)cc1 ?
Output: 100

Task: And the next one, Cn1sc(=O)n(Cc2ccccc2)c1=O ?
Output: 99.9

Task: Param item: O=C1Cc2c([nH]c3ccc(Br)cc23)-c2ccccc2N1
Output: 97.7

Task: Another: Nc1nccc(-c2c(-c3ccc(F)cc3)ncn2C2CCNCC2)n1
Output: 96.9

Task: Same lookup for COc1cc2ncnc(N3CCN(C(=O)Nc4ccc(Oc5ccccc5)cc4)CC3)c2cc1OC , please.
Output: 99.6

Task: Again, but for O=C(CCCc1ccc(-c2ccccc2F)cc1)Nc1ccc(O)cc1
Output: 98.2

----------
tested_system: UniProtKB Q8IW41
Sequence (Q8IW41 whole entry, looked up): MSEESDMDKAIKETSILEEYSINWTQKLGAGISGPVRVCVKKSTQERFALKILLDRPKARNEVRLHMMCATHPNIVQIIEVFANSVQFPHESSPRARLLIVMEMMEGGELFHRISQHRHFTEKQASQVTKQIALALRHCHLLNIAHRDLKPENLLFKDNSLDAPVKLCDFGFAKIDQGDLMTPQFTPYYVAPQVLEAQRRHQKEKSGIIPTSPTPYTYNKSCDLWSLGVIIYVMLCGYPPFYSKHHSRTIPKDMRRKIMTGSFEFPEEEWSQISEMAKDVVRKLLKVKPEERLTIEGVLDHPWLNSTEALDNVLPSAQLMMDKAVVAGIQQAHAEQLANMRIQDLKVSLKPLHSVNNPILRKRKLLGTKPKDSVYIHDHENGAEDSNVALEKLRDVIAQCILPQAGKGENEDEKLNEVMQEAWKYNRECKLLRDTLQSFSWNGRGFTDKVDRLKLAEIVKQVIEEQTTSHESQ
experiment: radiometric filter-binding kinase assay, Kinase HotSpot
measurement_context: compound 0.5 µM; ATP 10 µM
quantity: residual activity (%)
Number in %, nothing else.

In the examples that follow, each entry is paired with its recorded residual activity.
O=C1Cc2c([nH]c3ccc(Br)cc23)-c2ccccc2N1 :: 94.6
Nc1nnc2[nH]c3ccccc3nc1-2 :: 82.7
O=C(Nc1cccc(Nc2cc(Nc3cccc(C(F)(F)F)c3)ncn2)c1)C1CC1 :: 101
O=C1NC(=O)C(c2c[nH]c3ccccc23)=C1c1c[nH]c2ccccc12 :: 119

Task: // returns reported residual activity for input O=C1NC(=O)C(c2cn(CCCO)c3ncccc23)=C1c1cnccn1
Output: 98.6

Task: Okay, and Cc1nc2cc3nc(-c4cccs4)cnc3cc2n1C ?
Output: 100

Task: What about this molecule? O=C1Nc2ccccc2/C1=C1\Nc2ccccc2\C1=N/O
Output: 101

Task: Now consider Cn1sc(=O)n(Cc2ccccc2)c1=O and answer again.
Output: 94.2

Task: Next molecule up: CN(C)C[C@H]1CCn2c(c(C3=C(c4cn(C)c5ccccc45)C(=O)NC3=O)c3ccccc32)C1
Output: 95.4
